assay: Cytotoxicity against human CNE2 cells after 3 days by MTT assay; assay type: functional, cell-based; conditions: CNE-2, 72 h
Value Type: pIC50
Please report pIC50 as the negative decimal logarithm of the molar concentration, giving only the number.

# annotated cases, reported pIC50 shown
1) Cc1cc(C)nc(Sc2ccc(NC(=O)Nc3ccc(Cl)cc3Cl)cc2)n1    4.63
2) Cc1cc(C)nc(Oc2ccc(NC(=O)Nc3ccc(OC(F)(F)F)cc3)cc2)n1    4.51
3) Cc1cc(C)nc(Sc2ccc(NC(=O)Nc3ccc(Cl)cc3)cc2)n1    4.87
4) Cc1cc(C)nc(Oc2ccc(NC(=O)Nc3ccc(Cl)cc3)cc2)n1    4.69
5) Cc1cc(C)nc(Sc2ccc(NC(=O)Nc3ccc(F)cc3)cc2)n1    4.47

Can you share its pIC50? I mean this compound: "Cc1cc(C)nc(Sc2ccc(NC(=O)Nc3ccc(OC(F)(F)F)cc3)cc2)n1"
4.64

What about this compound? "Cc1cc(C)nc(Sc2ccc(NC(=O)Nc3ccccc3)cc2)n1"
4.66

Provenance of the data: ChEMBL document CHEMBL1649400
